Give IC50 for every item shown.
# system_tested: GPR43 (Homo sapiens)
# Construct: expressed in transfected cells
# protocol_description: Calcium mobilization assay without probenecid
# Format: cell-based
# condition_set: GPR43 stably expressing cells, triggered with sodium acetate at EC80, read-out: GPR43 assay without probenicid IC50

Reference set (2 entries):
Cc1cc(C)cc(CC(=O)N2CCC2(C)C(=O)N(C)Cc2ccc(Cl)c(F)c2)c1 (stereo not drawn) [Compound 42]
> 1000 nM
Cc1cc(C)cc(CC(=O)N2CCC2(C)C(=O)N(CCC#N)Cc2ccc(Cl)cc2)c1 (stereo not drawn) [Compound 77]
> 1000 nM

API: the following record is the query input.
Challenge: Kindly indicate its recorded IC50. Item: Cc1cc(C)cc(CC(=O)N2CCC2(C)C(=O)N(C)Cc2ccc(Cl)cc2)c1 (stereo not drawn) [Compound 3]
Response given: > 1000 nM

----------
# system_tested: GPR43 (Homo sapiens, UniProt O15552)
# Construct: expressed in transfected cells
# protocol_description: Calcium mobilization assay without probenecid
# Assay type: cell-based
# condition_set: GPR43 stably expressing cells, triggered with sodium acetate at EC80, read-out: GPR43 assay without probenicid IC50
pIC50: −log10 of the molar value.
assay_metric: pIC50

CN(Cc1ccc(Cl)cc1)C(=O)C1(C)CCN1C(=O)Cc1cccc(-c2ccccc2)c1 (centres unmarked)
< 6.00
CN(Cc1ccc(Cl)cc1)C(=O)C1(C)CCN1C(=O)c1csc2ccccc12 (centres unmarked)
6.30 to 7.00
Cc1cc(C)cc(CC(=O)N2CCC2(C)C(=O)N(CCCC#N)Cc2ccc(Cl)cc2)c1 (centres unmarked)
6.30 to 7.00
CN(Cc1ccc(Cl)cc1)C(=O)C1(C)CCN1C(=O)Cc1ccc(-c2ccc(C#N)cc2)cc1 (centres unmarked)
< 6.00
COC(=O)CCN(Cc1ccc(Cl)cc1)C(=O)C1(C)CCN1C(=O)Cc1cc(C)cc(C)c1 (centres unmarked)
6.00 to 6.30
COC(=O)CCN(Cc1ccc(Cl)cc1)C(=O)C1(C)CCN1C(=O)Cc1csc2ccccc12 (centres unmarked)
6.30 to 7.00
Cc1cc(C)cc(CC(=O)N2CCC2(C)C(=O)N(C)Cc2ccc(CC(C)C)cc2)c1 (centres unmarked)
< 6.00

Continue with the molecule presented below.
Challenge: // Input: Cc1cc(C)cc(CC(=O)N2CCC2(C)C(=O)N(CCCC(N)=O)Cc2ccc(Cl)cc2)c1 (centres unmarked) . Output its pIC50 only.
Response given: 7.00 to 11.00

----------
# system_tested: GPR43 (Homo sapiens)
# Construct: expressed in transfected cells
# Sequence (O15552 1-330): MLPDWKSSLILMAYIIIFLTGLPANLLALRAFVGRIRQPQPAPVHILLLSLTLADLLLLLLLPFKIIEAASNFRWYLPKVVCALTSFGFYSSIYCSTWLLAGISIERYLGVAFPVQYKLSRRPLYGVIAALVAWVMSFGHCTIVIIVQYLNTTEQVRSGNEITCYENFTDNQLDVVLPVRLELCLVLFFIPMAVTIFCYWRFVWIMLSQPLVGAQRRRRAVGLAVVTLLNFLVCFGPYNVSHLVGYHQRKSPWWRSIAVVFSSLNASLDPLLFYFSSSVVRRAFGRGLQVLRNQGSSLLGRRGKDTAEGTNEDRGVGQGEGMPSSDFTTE
# protocol_description: Calcium mobilization assay with probenecid
# Format: cell-based
# condition_set: GPR43 stably expressing cells; triggered with sodium acetate at EC80; 2.5 mM probenecid; read-out: GPR43 assay with probenicid IC50
pIC50: −log10 of the molar value.
assay_metric: pIC50

Some entries whose results are on file:
CC1(C(=O)N(CCCC(=O)O)Cc2ccc(Cl)cc2)CCN1C(=O)c1ccc2sccc2c1 (stereo not shown)
6.00 to 6.30
CC1(C(=O)N(CCCS(N)(=O)=O)c2ccc(Cl)cc2)CCN1C(=O)c1csc2ccccc12 (stereo not shown)
7.00 to 11.00
CN(Cc1ccc(Cl)cc1)C(=O)C1(C)CCN1C(=O)Cc1ccc(Cl)cc1 (stereo not shown)
< 6.00
Cc1cc(C)cc(CC(=O)N2CCC2(C)C(=O)N(CCNS(C)(=O)=O)Cc2ccc(Cl)cc2)c1 (stereo not shown)
6.30 to 7.00
Cc1cc(C)cc(CC(=O)N2CCC2(C)C(=O)N(CC(=O)NS(=O)(=O)C(F)(F)F)Cc2ccc(Cl)cc2)c1 (stereo not shown)
< 6.00

Please give pIC50 for each item listed below.
1. Cc1cc(C)cc(CC(=O)N2CCC2(C)C(=O)N(C)Cc2ccc(C(F)(F)F)cc2)c1 (stereo not shown)
2. COC(=O)CCN(Cc1ccc(Cl)cc1)C(=O)C1(C)CCN1C(=O)Cc1csc2ccccc12 (stereo not shown)
3. Cc1cc(C)cc(CC(=O)N2CCC2(C)C(=O)N(CCCC(=O)O)Cc2ccc(C(F)(F)F)cc2)c1 (stereo not shown)

Response given:
1: 6.30 to 7.00; 2: 7.00 to 11.00; 3: 6.00 to 6.30

Record pIC50 per entry; entries follow.
1. CC1(C(=O)N(CCCC(=O)O)Cc2ccn3ccnc3c2)CCN1C(=O)Cc1csc2ccccc12 (stereo not shown)
2. CC1(C(=O)N(CCCC(N)=O)Cc2ccc(Cl)cc2)CCN1C(=O)Cc1csc2ccccc12 (stereo not shown)
3. CN(Cc1ccc(Cl)cc1)C(=O)C1(C)CCN1C(=O)c1csc2ccccc12 (stereo not shown)
4. Cc1ccccc1OC(=O)N1CCC1(C)C(=O)N(CCCC(=O)O)Cc1ccc(Cl)cc1 (stereo not shown)
5. CN(Cc1ccc(Cl)cc1)C(=O)C1(C)CCN1C(=O)Cc1cc2ccccc2s1 (stereo not shown)

Response given:
["< 6.00", "< 6.00", "6.30 to 7.00", "< 6.00", "< 6.00"]

I need pIC50 for every entry listed below, if you could help.
1. Cc1cc(C)cc(CC(=O)N2CCC2(C)C(=O)N(CCc2nnc(O)o2)Cc2ccc(Cl)cc2)c1 (stereo not shown)
2. CC1(C(=O)N(CCCC(=O)O)Cc2ccc3ccoc3c2)CCN1C(=O)Cc1coc2ccccc12 (stereo not shown)
3. CC1(C(=O)N(CCCC(=O)O)Cc2ccc(C(F)(F)F)cc2)CCN1C(=O)Cc1csc2ccccc12 (stereo not shown)
4. Cc1cc(C)cc(CC(=O)N2CCC2(C)C(=O)N(CCCC#N)Cc2ccc(Cl)cc2)c1 (stereo not shown)
5. CC1(C(=O)NCc2ccc(Cl)cc2)CCN1C(=O)C1(c2ccc(Cl)cc2Cl)CC1 (stereo not shown)
6. CC1(C(=O)N(CCCC(=O)O)Cc2ccc3ccoc3c2)CCN1C(=O)c1csc2ccccc12 (stereo not shown)

Response given:
1: < 6.00; 2: 6.30 to 7.00; 3: 7.00 to 11.00; 4: 6.00 to 6.30; 5: < 6.00; 6: 6.30 to 7.00
